biological target: Histone deacetylase 1 (Homo sapiens, UniProt Q13547)
Sequence (Q13547 whole entry): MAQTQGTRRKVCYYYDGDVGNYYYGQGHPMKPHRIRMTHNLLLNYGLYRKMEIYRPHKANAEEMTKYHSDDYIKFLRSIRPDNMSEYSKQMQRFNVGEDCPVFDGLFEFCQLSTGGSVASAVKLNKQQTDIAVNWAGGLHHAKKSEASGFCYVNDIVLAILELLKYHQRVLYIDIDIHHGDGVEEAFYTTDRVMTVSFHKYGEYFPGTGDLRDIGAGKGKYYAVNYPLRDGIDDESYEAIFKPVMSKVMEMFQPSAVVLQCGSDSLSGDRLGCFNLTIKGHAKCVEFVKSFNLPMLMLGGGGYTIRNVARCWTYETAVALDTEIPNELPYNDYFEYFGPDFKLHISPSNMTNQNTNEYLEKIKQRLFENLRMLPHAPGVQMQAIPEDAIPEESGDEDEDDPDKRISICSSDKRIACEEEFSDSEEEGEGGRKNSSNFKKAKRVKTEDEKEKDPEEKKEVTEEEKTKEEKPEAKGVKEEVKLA
Property name: IC50 (nM)
One number for each entry, in nM.

-- ask Report IC50 under test system Histone deacetylase 1 (Homo sapiens, UniProt Q13547) for Cc1[nH]c2ccccc2c1C1=CCC(NCc2ccc(OCC(=O)NO)cc2F)CC1 (stereo unspecified) .
-- reply 1.6

###

target: Histone deacetylase 2 (Homo sapiens)
Sequence (Q92769 whole entry): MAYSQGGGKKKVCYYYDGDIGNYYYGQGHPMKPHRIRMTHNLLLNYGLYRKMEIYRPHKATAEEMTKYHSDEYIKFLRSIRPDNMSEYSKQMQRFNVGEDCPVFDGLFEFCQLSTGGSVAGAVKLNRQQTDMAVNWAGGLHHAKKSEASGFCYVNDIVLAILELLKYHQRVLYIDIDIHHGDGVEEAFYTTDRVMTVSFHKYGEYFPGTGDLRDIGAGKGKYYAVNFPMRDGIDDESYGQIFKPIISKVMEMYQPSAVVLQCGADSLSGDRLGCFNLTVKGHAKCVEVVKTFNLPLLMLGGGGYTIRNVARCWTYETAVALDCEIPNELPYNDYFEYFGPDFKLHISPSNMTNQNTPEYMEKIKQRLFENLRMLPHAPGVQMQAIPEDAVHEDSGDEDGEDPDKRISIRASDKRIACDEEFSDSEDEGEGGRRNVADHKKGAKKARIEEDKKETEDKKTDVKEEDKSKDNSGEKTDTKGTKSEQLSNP
Property name: pIC50
Numbers only, as −log10 of the molar value.

-- ask Using Histone deacetylase 2 (Homo sapiens) as the test system, report measured pIC50 of Cc1[nH]c2ccccc2c1C1=CCC(NCc2ccc(OCC(=O)NO)cc2F)CC1 (stereo unspecified) .
-- reply 8.72
